Values were extracted from paper PMC10819888.

Test system: MCF7
Measurement notes: NCI-60 one-dose assay
Format: cell-based
Condition notes: Homo sapiens, MCF7 (Breast Cancer), read-out: Cell Inhibition Percent
Each entry gets Condition not met if its inhibition at 10 µM stays under 30%, and Condition met if its inhibition at 10 µM is 30% or above.

                                   compound     discrete_label
0  COc1cc(/C=N/NC(=O)c2ccc3[nH]c(-c4ccc(Cl)cc4)nc3c2)cc(OC)c1OC [Compound 4h]      Condition met
1  CN(C)c1ccc(C=NNC(=O)c2ccc3[nH]c(-c4ccc(Cl)cc4)nc3c2)cc1 [Compound 4b]  Condition not met
2  O=C(N/N=C/c1ccc(O)cc1)c1ccc2[nH]c(-c3ccc(Cl)cc3)nc2c1 [Compound 4i]  Condition not met
3  CCNC(=S)NNC(=O)c1ccc2[nH]c(-c3ccc(Cl)cc3)nc2c1 [Compound 5]  Condition not met
4  O=C(NN=Cc1ccc(Cl)cc1Cl)c1ccc2[nH]c(-c3ccc(Cl)cc3)nc2c1 [Compound 4f]  Condition not met
5  O=C(NN=Cc1ccc(F)cc1)c1ccc2[nH]c(-c3ccc(Cl)cc3)nc2c1 [Compound 4d]      Condition met
6  O=C(NN=Cc1ccccc1)c1ccc2[nH]c(-c3ccc(Cl)cc3)nc2c1 [Compound 4a]  Condition not met
7  O=C(NN=Cc1ccc([N+](=O)[O-])cc1)c1ccc2[nH]c(-c3ccc(Cl)cc3)nc2c1 [Compound 4c]      Condition met

* * *

# inhibition at 10 µM per record follows
Test system: SK-MEL-5
Measurement notes: NCI-60 one-dose assay
Type: cell-based
Condition notes: Homo sapiens, SK-MEL-5 (Melanoma), read-out: Cell Inhibition Percent
Experimental endpoint: inhibition at 10 µM (%)

In [3]: df
Out[3]:
                                   compound    system  experimental_endpoint  unit_symbol  observed_measurement
0  O=C(NN=Cc1ccccc1)c1ccc2[nH]c(-c3ccc(Cl)cc3)nc2c1 [Compound 4a]  SK-MEL-5    inhibition at 10 µM            %                  4.85
1  CN(C)c1ccc(C=NNC(=O)c2ccc3[nH]c(-c4ccc(Cl)cc4)nc3c2)cc1 [Compound 4b]  SK-MEL-5    inhibition at 10 µM            %                  5.02
2  CCn1c(-c2ccc3[nH]c(-c4ccc(Cl)cc4)nc3c2)n[nH]c1=S [Compound 6]  SK-MEL-5    inhibition at 10 µM            %                  2.04

* * *

System: RXF 393
Measurement notes: NCI-60 one-dose assay
Assay type: cell-based
Condition notes: Homo sapiens, RXF 393 (Renal Cancer), read-out: Cell Inhibition Percent
inhibition at 10 µM: recorded values
Experimental endpoint: inhibition at 10 µM (%)

                                   compound   system  observed_measurement
0  COc1ccc(C=NNC(=O)c2ccc3[nH]c(-c4ccc(Cl)cc4)nc3c2)cc1 [Compound 4g]  RXF 393                  56.2
1  O=C(NN=Cc1ccccc1)c1ccc2[nH]c(-c3ccc(Cl)cc3)nc2c1 [Compound 4a]  RXF 393                  15.5
2  COc1cc(/C=N/NC(=O)c2ccc3[nH]c(-c4ccc(Cl)cc4)nc3c2)cc(OC)c1OC [Compound 4h]  RXF 393                  63.7
3  CCNC(=S)NNC(=O)c1ccc2[nH]c(-c3ccc(Cl)cc3)nc2c1 [Compound 5]  RXF 393                  7.61
4  O=C(NN=Cc1ccc(Cl)cc1)c1ccc2[nH]c(-c3ccc(Cl)cc3)nc2c1 [Compound 4e]  RXF 393                  81.1
5  O=C(NN=Cc1ccc(F)cc1)c1ccc2[nH]c(-c3ccc(Cl)cc3)nc2c1 [Compound 4d]  RXF 393                  22.6
6  CN(C)c1ccc(C=NNC(=O)c2ccc3[nH]c(-c4ccc(Cl)cc4)nc3c2)cc1 [Compound 4b]  RXF 393                  7.79

* * *

inhibition at 10 µM values for the compounds below.
Tested on: M14
Measurement notes: NCI-60 one-dose assay
Type: cell-based
Condition notes: Homo sapiens, M14 (Melanoma), read-out: Cell Inhibition Percent
Experimental endpoint: inhibition at 10 µM (%)

>>> df
                               input_smiles  observed_measurement
0  O=C(NN=Cc1ccc(Cl)cc1)c1ccc2[nH]c(-c3ccc(Cl)cc3)nc2c1                  80.3
1  CCNC(=S)NNC(=O)c1ccc2[nH]c(-c3ccc(Cl)cc3)nc2c1                  1.67
2  CCn1c(-c2ccc3[nH]c(-c4ccc(Cl)cc4)nc3c2)n[nH]c1=S                     0

* * *

Test system: HT29
Measurement notes: NCI-60 one-dose assay
Format: cell-based
Condition notes: Homo sapiens, HT-29, HT29 (Colon Cancer), read-out: Cell Inhibition Percent
compounds and their reported inhibition at 10 µM
Experimental endpoint: inhibition at 10 µM (%)

In [3]: df
Out[3]:
                                   compound  system  observed_measurement
0  CCNC(=S)NNC(=O)c1ccc2[nH]c(-c3ccc(Cl)cc3)nc2c1 [Compound 5]    HT29                  2.33
1  CCn1c(-c2ccc3[nH]c(-c4ccc(Cl)cc4)nc3c2)n[nH]c1=S [Compound 6]    HT29                  2.07
2  COc1ccc(C=NNC(=O)c2ccc3[nH]c(-c4ccc(Cl)cc4)nc3c2)cc1 [Compound 4g]    HT29                  78.1
3  COc1cc(/C=N/NC(=O)c2ccc3[nH]c(-c4ccc(Cl)cc4)nc3c2)cc(OC)c1OC [Compound 4h]    HT29                  60.1
4  O=C(N/N=C/c1ccc(O)cc1)c1ccc2[nH]c(-c3ccc(Cl)cc3)nc2c1 [Compound 4i]    HT29                     0
5  O=C(NN=Cc1ccc(Cl)cc1Cl)c1ccc2[nH]c(-c3ccc(Cl)cc3)nc2c1 [Compound 4f]    HT29                  2.18
6  CN(C)c1ccc(C=NNC(=O)c2ccc3[nH]c(-c4ccc(Cl)cc4)nc3c2)cc1 [Compound 4b]    HT29                  2.26
7  O=C(NN=Cc1ccc(Cl)cc1)c1ccc2[nH]c(-c3ccc(Cl)cc3)nc2c1 [Compound 4e]    HT29                  98.3

* * *

Property: melting point; scope: individual compounds
Experimental endpoint: melting point

>>> print(df.to_string())
                               input_smiles  observed_measurement
0  O=C(NN=Cc1ccc(Cl)cc1Cl)c1ccc2[nH]c(-c3ccc(Cl)cc3)nc2c1         294 to 297 °C
1  O=C(N/N=C/c1ccc(O)cc1)c1ccc2[nH]c(-c3ccc(Cl)cc3)nc2c1         263 to 265 °C
2  CCn1c(-c2ccc3[nH]c(-c4ccc(Cl)cc4)nc3c2)n[nH]c1=S         292 to 294 °C
3  O=C(NN=Cc1ccc(F)cc1)c1ccc2[nH]c(-c3ccc(Cl)cc3)nc2c1         285 to 287 °C
4  CN(C)c1ccc(C=NNC(=O)c2ccc3[nH]c(-c4ccc(Cl)cc4)nc3c2)cc1         283 to 285 °C

* * *

Test system: SK-MEL-5
Measurement notes: NCI-60 one-dose assay
Format: cell-based
Condition notes: Homo sapiens, SK-MEL-5 (Melanoma), read-out: Cell Inhibition Percent
# inhibition at 10 µM >= 10% gives met, anything below gives not met

                               input_smiles  discrete_label
0  O=C(N/N=C/c1ccc(O)cc1)c1ccc2[nH]c(-c3ccc(Cl)cc3)nc2c1         not met
1  O=C(NN=Cc1ccc(Cl)cc1Cl)c1ccc2[nH]c(-c3ccc(Cl)cc3)nc2c1         not met
2  CCNC(=S)NNC(=O)c1ccc2[nH]c(-c3ccc(Cl)cc3)nc2c1         not met
3  COc1ccc(C=NNC(=O)c2ccc3[nH]c(-c4ccc(Cl)cc4)nc3c2)cc1             met
4  O=C(NN=Cc1ccc(F)cc1)c1ccc2[nH]c(-c3ccc(Cl)cc3)nc2c1             met
5  O=C(NN=Cc1ccc(Cl)cc1)c1ccc2[nH]c(-c3ccc(Cl)cc3)nc2c1             met
6  O=C(NN=Cc1ccc([N+](=O)[O-])cc1)c1ccc2[nH]c(-c3ccc(Cl)cc3)nc2c1             met
7  COc1cc(/C=N/NC(=O)c2ccc3[nH]c(-c4ccc(Cl)cc4)nc3c2)cc(OC)c1OC             met
